From: ChEMBL document CHEMBL1131002

- study.system: Monoamine transporters; Norepininephrine & dopamine (Rattus norvegicus) (UniProt P23977+Q9WTR4)
- Sequence (P23977 whole entry): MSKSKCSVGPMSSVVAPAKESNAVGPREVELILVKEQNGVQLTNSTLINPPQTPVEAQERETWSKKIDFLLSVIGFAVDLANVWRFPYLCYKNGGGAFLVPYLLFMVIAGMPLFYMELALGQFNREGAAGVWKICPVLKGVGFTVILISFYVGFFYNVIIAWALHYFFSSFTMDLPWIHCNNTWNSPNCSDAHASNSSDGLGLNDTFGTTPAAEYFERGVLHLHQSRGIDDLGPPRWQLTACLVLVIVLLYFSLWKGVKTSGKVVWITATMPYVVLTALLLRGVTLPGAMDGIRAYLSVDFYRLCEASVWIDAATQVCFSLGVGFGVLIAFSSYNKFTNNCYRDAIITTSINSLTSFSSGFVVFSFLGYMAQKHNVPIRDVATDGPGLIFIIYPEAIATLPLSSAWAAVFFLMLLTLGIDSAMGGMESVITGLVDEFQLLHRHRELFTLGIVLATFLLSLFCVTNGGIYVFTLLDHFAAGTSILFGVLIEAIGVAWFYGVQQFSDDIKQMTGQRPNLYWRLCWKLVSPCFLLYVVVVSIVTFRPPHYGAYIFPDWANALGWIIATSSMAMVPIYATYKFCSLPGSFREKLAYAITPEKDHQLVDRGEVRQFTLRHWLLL
- Sequence (Q9WTR4 1-597): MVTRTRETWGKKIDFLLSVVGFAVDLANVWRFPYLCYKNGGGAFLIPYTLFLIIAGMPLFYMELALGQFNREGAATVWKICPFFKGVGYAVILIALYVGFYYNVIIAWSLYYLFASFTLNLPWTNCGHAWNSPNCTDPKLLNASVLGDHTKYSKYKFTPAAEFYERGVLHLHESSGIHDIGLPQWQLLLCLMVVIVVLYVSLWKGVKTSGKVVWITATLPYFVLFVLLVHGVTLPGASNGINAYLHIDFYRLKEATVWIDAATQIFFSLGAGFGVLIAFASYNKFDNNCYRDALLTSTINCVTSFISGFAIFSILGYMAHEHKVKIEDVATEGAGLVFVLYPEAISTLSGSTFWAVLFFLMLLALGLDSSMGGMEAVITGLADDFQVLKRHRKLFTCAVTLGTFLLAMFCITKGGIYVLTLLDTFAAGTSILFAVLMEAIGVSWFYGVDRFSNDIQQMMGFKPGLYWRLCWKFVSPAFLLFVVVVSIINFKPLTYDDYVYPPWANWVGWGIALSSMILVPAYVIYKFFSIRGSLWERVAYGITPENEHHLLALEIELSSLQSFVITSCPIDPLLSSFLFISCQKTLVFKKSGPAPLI
- measurement.description: Selectivity for Norepinephrine and Dopamine Transporters was evaluated
- Type: protein assay
The following compounds are listed with their measured Selectivity values.

Worked cases, answers included:
{"compound": "COC(=O)[C@@H]1C2CCC(C[C@@H]1OC(=O)c1ccc(I)cc1)N2C (some centres undefined)", "assay.result": 0.4}
{"compound": "COC(=O)[C@@H]1C2CCC(C[C@@H]1OC(=O)c1ccccc1O)N2C (some centres undefined)", "assay.result": 5.7}
{"compound": "COC(=O)[C@@H]1C2CCC(C[C@@H]1OC(=O)c1ccc(I)cc1O)N2C (some centres undefined)", "assay.result": 0.9}

# next compound below
Indicate its recorded Selectivity; the compound in question is CC(C)OC(=O)[C@@H]1C2CCC(C[C@@H]1OC(=O)c1ccc(I)cc1O)N2C (some centres undefined)
6.8
